For each record, write down the corresponding hERG current change (%, negative = inhibition) at 10uM.
TARGET_ENTITY: human ether-à-go-go-related gene (hERG) potassium channel (human, UniProt Q12809);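 further: peak tail current of the secondary pulse compared with the same well before compound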
Sequence (Q12809 whole entry, looked up): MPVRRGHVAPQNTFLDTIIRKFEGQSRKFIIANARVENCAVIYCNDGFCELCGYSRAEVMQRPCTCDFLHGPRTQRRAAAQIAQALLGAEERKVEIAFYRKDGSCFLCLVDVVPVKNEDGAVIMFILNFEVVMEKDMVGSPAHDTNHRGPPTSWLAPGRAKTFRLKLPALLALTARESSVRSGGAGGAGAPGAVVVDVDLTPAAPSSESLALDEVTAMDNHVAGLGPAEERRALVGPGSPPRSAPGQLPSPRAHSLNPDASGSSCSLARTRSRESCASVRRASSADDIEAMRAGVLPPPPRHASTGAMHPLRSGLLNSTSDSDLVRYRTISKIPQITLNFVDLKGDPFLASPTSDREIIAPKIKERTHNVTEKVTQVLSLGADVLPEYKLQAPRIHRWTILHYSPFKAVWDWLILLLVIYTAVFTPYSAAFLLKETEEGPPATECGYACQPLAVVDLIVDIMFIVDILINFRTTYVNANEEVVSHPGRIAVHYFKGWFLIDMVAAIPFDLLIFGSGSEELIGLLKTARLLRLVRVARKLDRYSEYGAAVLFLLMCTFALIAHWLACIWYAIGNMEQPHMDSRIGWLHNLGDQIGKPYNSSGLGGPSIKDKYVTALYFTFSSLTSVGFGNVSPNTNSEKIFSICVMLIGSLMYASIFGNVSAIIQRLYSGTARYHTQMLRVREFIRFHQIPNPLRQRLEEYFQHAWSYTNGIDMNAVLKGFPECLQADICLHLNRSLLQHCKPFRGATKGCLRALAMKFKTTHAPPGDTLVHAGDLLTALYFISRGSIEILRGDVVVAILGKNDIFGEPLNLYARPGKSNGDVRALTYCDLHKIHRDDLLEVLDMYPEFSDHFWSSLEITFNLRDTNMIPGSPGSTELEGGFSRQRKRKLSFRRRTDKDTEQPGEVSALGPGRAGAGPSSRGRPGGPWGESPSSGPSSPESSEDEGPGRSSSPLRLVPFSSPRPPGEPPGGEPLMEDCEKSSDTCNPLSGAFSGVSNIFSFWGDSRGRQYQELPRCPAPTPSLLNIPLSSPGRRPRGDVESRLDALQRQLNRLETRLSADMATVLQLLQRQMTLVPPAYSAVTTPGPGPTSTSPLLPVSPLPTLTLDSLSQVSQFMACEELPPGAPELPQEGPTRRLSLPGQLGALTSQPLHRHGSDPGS
TEST_DETAILS: primary screen, population patch clamp on CHO cells stably expressing hERG; higher = less effect of the substance
Protocol: Briefly, Chinese hamster ovary (CHO) cells stably expressing the hERG channel were dislodged from tissue culture flasks and dispensed into PPC plates. […] During the recording, background leak currents were estimated by a 100 ms step to -80 mV from an initial holding potential of -70 mV and subtracted from the subsequent current measurement. The campaign was conducted in two phases using slight differences in recording protocol. […]
About 14,000 (4.5%) of roughly 310,000 compounds showed an effect of 50% or more. Effects have a minus sign here. For the sample, strong results were picked, then their nearest neighbours and some compounds at random.
The figure you give is taken to be in %; do not add the unit.

Q. Please give the measured hERG current change (%, negative = inhibition) at 10uM for this molecule: O=C(c1ccc(F)cc1)C1CCN(C(=S)Nc2ccccc2)CC1
A. -28.8

Q. # input molecule: Cc1ccnc(NC(=O)C2CCN(S(=O)(=O)c3ccc(Cl)c(C(F)(F)F)c3)CC2)c1 ; wanted: its hERG current change (%, negative = inhibition) at 10uM
A. -14.2

Q. I am curious: what hERG current change (%, negative = inhibition) at 10uM value has been reported for Cc1ccc(NC(=O)N2CCC(C(=O)NCc3ccc(F)cc3)CC2)cc1 ?
A. -52.2

Q. Which hERG current change (%, negative = inhibition) at 10uM value is on record for O=C(c1ccc(F)cc1)C1CCN(C(=S)Nc2ccccc2Cl)CC1 ?
A. 0.35

Q. Which hERG current change (%, negative = inhibition) at 10uM reading was recorded for the molecule CCc1ccccc1NC(=S)N1CCC(C(=O)c2ccc(F)cc2)CC1 ?
A. -63

Q. What measured hERG current change (%, negative = inhibition) at 10uM goes with CS(=O)(=O)Nc1ccc(S(=O)(=O)N2CCCCCC2)cc1 ?
A. -65.4

Q. // lookup hERG current change (%, negative = inhibition) at 10uM for O=C(Nc1ccncc1)C1CCN(S(=O)(=O)c2ccc(Cl)c(C(F)(F)F)c2)CC1
A. -69.9

Q. Item CCCNC(=S)N1CCC(C(=O)c2ccc(F)cc2)CC1 has what recorded hERG current change (%, negative = inhibition) at 10uM?
A. -8.84

Q. State the recorded hERG current change (%, negative = inhibition) at 10uM for this entry: O=C(Nc1cc(S(=O)(=O)N2CCCCC2)ccc1N1CCCCC1)c1ccncc1
A. -52.4

Q. Which hERG current change (%, negative = inhibition) at 10uM reading was recorded for the molecule O=C(Nc1ccncc1)c1cc(S(=O)(=O)N2CCCCC2)ccc1Cl ?
A. -56.2
